- System: Alternaria alternata
- experiment description: Fungicidal activity screen in amended agar, 96 well plates, Alternaria alternata
- Type: cell-based
- condition set: Medium N agar, 1,000 spores/mL, 20, 2, 0.2 and 0.02 ppm, room temperature (18° C.), assessed after 3 to 4 days, read-out: Alternaria (fungal growth vs DMSO controls, EC50 ranking)
readout: EC50

In [3]: df
Out[3]:
                                entry_smiles  readout         result
 0  COc1ccnc2c(=O)n(-c3nc4ccc(Oc5ccc(F)cc5)cc4s3)c(=S)oc12     EC50      < 2 µg/mL
 1  COc1ccnc2c(=O)n(-c3nc4ccc(Oc5ccccc5OC(F)F)cc4s3)c(=S)oc12     EC50     ≥ 20 µg/mL
 2  COc1ccnc2c(=O)n(-c3nc4ccc(Oc5ccccc5OC(F)(F)F)cc4s3)c(=S)oc12     EC50     ≥ 20 µg/mL
 3  COc1ccnc2c(=O)n(-c3nc4ccc(Oc5ccc(F)cc5)cc4s3)c(=O)oc12     EC50  2 to 20 µg/mL
 4  COc1ccnc2c(=O)n(-c3nc4ccc(Oc5cncc(C(F)(F)F)c5)cc4s3)c(=S)oc12     EC50  2 to 20 µg/mL
 5  COc1ccnc2c(=O)n(-c3nc4ccc(Oc5cncc(Cl)c5)cc4s3)c(=S)oc12     EC50  2 to 20 µg/mL
 6  COc1ccnc2c(=O)n(-c3nc4ccc(OC5CCCCC5)cc4s3)c(=S)oc12     EC50     ≥ 20 µg/mL
 7  COc1ccnc2c(=O)n(-c3nc4ccc(OC5CCCC5)cc4s3)c(=S)oc12     EC50     ≥ 20 µg/mL
 8  COc1ccnc2c(=O)n(-c3nc4ccc(Sc5ccccc5)cc4s3)c(=S)oc12     EC50  2 to 20 µg/mL
 9  COc1ccnc2c(=O)n(-c3nc4ccc(Oc5ccc(C(F)(F)F)cc5Cl)nc4s3)c(=S)oc12     EC50     ≥ 20 µg/mL
10  COc1ccnc2c(=O)n(-c3nc4ccc(Cc5ccc(F)cc5Cl)cc4s3)c(=S)oc12     EC50  2 to 20 µg/mL
11  COc1ccnc2c(=O)n(-c3nc4ccc(Sc5cccnc5Cl)cc4s3)c(=S)oc12     EC50     ≥ 20 µg/mL
12  COc1ccnc2c(=O)n(-c3nc4ccc(Oc5cc(F)cc(F)c5)cc4s3)c(=S)oc12     EC50  2 to 20 µg/mL
13  COc1ccnc2c(=O)n(-c3nc4ccc(Oc5cccnc5Cl)nc4s3)c(=S)oc12     EC50     ≥ 20 µg/mL
14  COc1ccnc2c(=O)n(-c3nc4ccc(Oc5ccccc5)cc4s3)c(=S)oc12     EC50  2 to 20 µg/mL
15  COc1ccnc2c(=O)n(-c3nc4ccc(Oc5ccccc5Cl)nc4s3)c(=S)oc12     EC50     ≥ 20 µg/mL
